System: LTB4-mediated CD11b upregulation on human neutrophils
PROTOCOL: LTB4-mediated CD11b upregulation on human neutrophils (flow cytometry, anti-CD11b-FITC)
Type: cell-based
CONDITION_NOTES: Homo sapiens, Neutrophil, isolated human neutrophils, 3 nM LTB4; semicolons separate individual assay determinations; read-out: CD11b/CD18 IC50
Where a name gives a salt, the structure may show the parent alone.
QUANTITY: pIC50
# pIC50 is unitless: minus log10 of the molar concentration; print number only

The following molecules have reported results that may help.
                                   molecule  measurement
0  CCCc1c(OCCCOc2cc(O)c(-n3cccc3)cc2CC)cccc1Oc1ccccc1C(=O)OC         5.69
1  CCCc1c(OCCCOc2cc(O)c(-c3cocn3)cc2CC)cccc1Oc1ccccc1C(=O)O         6.32
2  CCCc1c(OCCCOc2cc(O)c(-c3cnc[nH]3)cc2CC)cccc1Oc1ccccc1C(=O)O [Example 2, hydrochloride]         5.23
3  CCCc1c(OCCCOc2cc(O)c(-c3cnn[nH]3)cc2CC)cccc1Oc1ccccc1C(=O)O         6.59

Query: Please tell me the measured pIC50 for CCCc1c(OCCCOc2cc(O)c(C3CCCN3)cc2CC)cccc1Oc1ccccc1C(=O)O (stereo not shown) [Example 16, hydrochloride hydrate] ; system: LTB4-mediated CD11b upregulation on human neutrophils.
Response: 5.97

Query: Please tell me the measured pIC50 for CCCc1c(OCCCOc2cc(O)c(-c3ccsc3)cc2CC)cccc1Oc1ccccc1C(=O)O [Example 17, hydrate] ; system: LTB4-mediated CD11b upregulation on human neutrophils.
Response: 7.96
